- measured_on: human GLP-2 receptor (Homo sapiens, UniProt O95838)
- Sequence (O95838 1-553 D470N): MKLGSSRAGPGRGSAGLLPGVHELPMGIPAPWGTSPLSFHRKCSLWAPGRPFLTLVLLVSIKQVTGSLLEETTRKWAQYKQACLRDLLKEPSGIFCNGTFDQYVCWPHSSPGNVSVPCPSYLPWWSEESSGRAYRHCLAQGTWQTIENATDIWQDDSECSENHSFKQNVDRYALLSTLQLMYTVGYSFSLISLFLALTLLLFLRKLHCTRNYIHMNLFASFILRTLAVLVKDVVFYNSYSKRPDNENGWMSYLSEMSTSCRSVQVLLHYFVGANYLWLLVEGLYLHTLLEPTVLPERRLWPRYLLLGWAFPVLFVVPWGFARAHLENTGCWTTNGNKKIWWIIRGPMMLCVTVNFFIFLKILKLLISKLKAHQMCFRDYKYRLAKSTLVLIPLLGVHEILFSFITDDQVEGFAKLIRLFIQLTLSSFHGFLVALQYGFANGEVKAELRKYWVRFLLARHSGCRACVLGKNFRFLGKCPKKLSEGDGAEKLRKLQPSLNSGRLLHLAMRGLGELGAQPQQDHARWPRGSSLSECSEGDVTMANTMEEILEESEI
- test_description: GLP-2 receptor potency assay (cAMP AlphaScreen, HEK293 cells stably expressing GLP-2R)
- Type: cell-based
measured_property: pEC50
Numbers only, as −log10 of the molar value.

q: Please report the recorded pEC50 for H-HGEGTFTSELATILDEQAARDFIAWLIAHKITD-OH [Compound 38] .
a: 10.37
